- PROTOCOL TEXT: Inhibition of Cryptosporidium parvum recombinant Galactose/N-acetylgalactosamine-specific lectin binding to Caco2A cells
- Type: cell-based
- TEST SETTINGS: caco-2
QUANTITY MEASURED: IC50 (mM)

# COMPOUND, OBSERVED
measured = [
    ("CC(=O)N[C@H]1C(O)O[C@H](CO)[C@H](O)[C@@H]1O (some centres undefined)", 6.5),
    ("CC(=O)N[C@H]1C(O)O[C@H](CO)[C@H](O)[C@@H]1O[C@@H]1O[C@H](CO)[C@H](O)[C@H](O)[C@H]1O (some centres undefined)", 3.5),
    ("OC[C@H]1O[C@H](O[C@H]2[C@H](O)[C@@H](O)[C@H](O)O[C@@H]2CO)[C@H](O)[C@@H](O)[C@H]1O", 5),
    ("O=[N+]([O-])c1ccc(O[C@@H]2O[C@H](CO)[C@H](O)[C@H](O)[C@H]2O)cc1", 50),
    ("CC(=O)N[C@@H]1[C@@H](O)[C@H](O)[C@@H](CO[C@@H]2O[C@H](CO)[C@H](O)[C@H](O)[C@H]2O)O[C@H]1O", 0.5),
]

1. O=C[C@H](O)[C@@H](O)[C@@H](O)[C@H](O)CO [GALACTOSE]
2. CC(=O)N[C@@H]1[C@@H](O[C@@H]2O[C@H](CO)[C@H](O)[C@H](O)[C@H]2O)[C@H](O)[C@@H](CO)O[C@H]1O
3. OC[C@H]1O[C@H](O[C@@H]2[C@H](O)[C@@H](O)C(O)O[C@@H]2CO)[C@H](O)[C@@H](O)[C@H]1O (some centres undefined)
input: Give the ascending ranking of the items by reported IC50. // list labels; follow requested order
output: 2, 3, 1
(2: 1.5 mM, 3: 2.5 mM, 1: 12.5 mM)

From: ChEMBL document CHEMBL1156523
